Values were extracted from ChEMBL document CHEMBL3885861.

compounds and their reported Lym
Organism: Rattus norvegicus
Test: Open TG-GATES - Regimen: Daily Repeat
Type: toxicity, organism-based, Sprague-Dawley
Design: regimen Daily Repeat, gender Male, age 6 weeks
Settings: in vivo, po, 1000 mg/kg, […], tissue Blood, route gavage, dose level High, time 7 day
# unit: % | format: bare number

Below, 2 compounds whose answers are already recorded.
[
  {
    "smiles input": "O=C(OC[C@H]1O[C@@H](OC(=O)c2cc(O)c(O)c(OC(=O)c3cc(O)c(O)c(O)c3)c2)[C@H](OC(=O)c2cc(O)c(O)c(OC(=O)c3cc(O)c(O)c(O)c3)c2)[C@@H](OC(=O)c2cc(O)c(O)c(OC(=O)c3cc(O)c(O)c(O)c3)c2)[C@@H]1OC(=O)c1cc(O)c(O)c(OC(=O)c2cc(O)c(O)c(O)c2)c1)c1cc(O)c(O)c(OC(=O)c2cc(O)c(O)c(O)c2)c1",
    "Lym, %": 72
  },
  {
    "smiles input": "Cc1nnc2n1-c1ccc(Cl)cc1C(c1ccccc1Cl)=NC2",
    "Lym, %": 74
  }
]

In the following, a different compound is considered.
// query Item CNC(=C[N+](=O)[O-])NCCSCc1ccc(CN(C)C)o1 has what recorded Lym?
// result 82.2
